Assay System: Serine/threonine-protein kinase Nek1 (Homo sapiens); note: in the data inactive means no Kd found up to 30 µM
Sequence (Q96PY6 whole entry): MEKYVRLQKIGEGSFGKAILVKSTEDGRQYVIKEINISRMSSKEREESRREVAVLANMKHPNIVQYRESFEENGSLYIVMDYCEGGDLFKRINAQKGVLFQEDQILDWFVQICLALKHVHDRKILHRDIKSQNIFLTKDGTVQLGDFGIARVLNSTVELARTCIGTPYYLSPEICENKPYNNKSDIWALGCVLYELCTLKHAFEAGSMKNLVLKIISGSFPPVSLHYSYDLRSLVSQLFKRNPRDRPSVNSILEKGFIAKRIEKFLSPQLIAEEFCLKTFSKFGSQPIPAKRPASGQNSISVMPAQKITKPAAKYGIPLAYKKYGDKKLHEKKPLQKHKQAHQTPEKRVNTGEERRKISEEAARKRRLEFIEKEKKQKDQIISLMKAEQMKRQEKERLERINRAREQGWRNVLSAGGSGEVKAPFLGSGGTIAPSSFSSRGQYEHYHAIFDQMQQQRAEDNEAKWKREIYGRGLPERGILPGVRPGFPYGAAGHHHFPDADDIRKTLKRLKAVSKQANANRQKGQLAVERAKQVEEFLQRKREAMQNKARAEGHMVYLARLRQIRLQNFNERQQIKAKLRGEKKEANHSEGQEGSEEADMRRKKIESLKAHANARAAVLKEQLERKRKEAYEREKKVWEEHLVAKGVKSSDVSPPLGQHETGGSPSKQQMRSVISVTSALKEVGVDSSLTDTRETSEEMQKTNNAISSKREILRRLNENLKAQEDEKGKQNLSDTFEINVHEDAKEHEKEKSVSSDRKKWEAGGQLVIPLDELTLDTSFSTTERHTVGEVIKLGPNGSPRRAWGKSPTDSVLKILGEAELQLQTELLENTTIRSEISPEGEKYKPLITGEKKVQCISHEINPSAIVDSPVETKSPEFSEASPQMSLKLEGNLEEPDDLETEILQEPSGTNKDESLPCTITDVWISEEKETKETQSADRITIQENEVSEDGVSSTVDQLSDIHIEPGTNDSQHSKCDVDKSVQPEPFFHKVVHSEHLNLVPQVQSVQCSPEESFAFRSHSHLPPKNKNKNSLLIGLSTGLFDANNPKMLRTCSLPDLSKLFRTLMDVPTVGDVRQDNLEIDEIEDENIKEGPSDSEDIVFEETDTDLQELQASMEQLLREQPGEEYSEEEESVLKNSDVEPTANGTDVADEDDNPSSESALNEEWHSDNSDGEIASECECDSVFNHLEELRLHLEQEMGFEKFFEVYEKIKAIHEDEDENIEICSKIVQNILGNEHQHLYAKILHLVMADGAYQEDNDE
Counter-ions that a name gives are not always drawn. The source made the active and inactive calls.
// allowed return values: active, inactive

Example entries and their recorded answers appear below.
Molecule	Assigned Label
CC(=O)c1cnc2ccc(-c3cc(Cl)c(O)c(Cl)c3)nc2c1N[C@H]1CC[C@H](CN(C)C)CC1	inactive
C[C@@H](NC(=O)c1ncnc(N)c1Cl)c1ncc(C(=O)Nc2cc(C(F)(F)F)c(Cl)cn2)s1	inactive
COc1cc(Nc2ncc3c(n2)-c2ccc(Cl)cc2C(c2c(F)cccc2OC)=NC3)ccc1C(=O)O	inactive
NC1(c2ccc(-c3nc4ccn5c(=O)[nH]nc5c4cc3-c3ccccc3)cc2)CCC1	inactive
COCC(=O)NC/C=C/c1ccc2ncnc(Nc3ccc(Oc4ccc(C)nc4)c(C)c3)c2c1	inactive
Nc1ncnc2c1c(-c1cccc(OCc3ccccc3)c1)cn2[C@H]1C[C@@H](CN2CCC2)C1	inactive
Cc1csc(-c2nnc(Nc3ccc(Oc4ncccc4-c4ccnc(N)n4)cc3)c3ccccc23)c1	active

Please state the recorded outcome for this molecule: CCS(=O)(=O)N1CCN(c2ccc(Nc3ncc(C(N)=O)c(NC4CC4)n3)cc2)CC1 [Cerdulatinib Hydrochloride] inactive

====

Assay System: Cyclin-dependent kinase 5 (Homo sapiens, UniProt Q00535); note: in the data inactive means no Kd found up to 30 µM
Sequence (Q00535 whole entry): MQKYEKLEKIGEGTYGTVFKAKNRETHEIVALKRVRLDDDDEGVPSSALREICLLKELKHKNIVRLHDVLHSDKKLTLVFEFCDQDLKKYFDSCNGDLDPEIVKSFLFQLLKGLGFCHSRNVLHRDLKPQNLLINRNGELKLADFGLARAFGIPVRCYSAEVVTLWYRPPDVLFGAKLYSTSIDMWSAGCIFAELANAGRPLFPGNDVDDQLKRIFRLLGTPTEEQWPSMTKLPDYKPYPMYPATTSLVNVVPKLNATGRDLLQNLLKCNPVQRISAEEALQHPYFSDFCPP
Calls of active or inactive are those of the source.
Entries and their Kd values follow.

Below, 3 compounds whose answers are already recorded.
Query Smiles	Assay System	Kd
CCn1cc(-c2ccnc3[nH]c(-c4cccc(CN(C)C)c4)cc23)c(-c2ccc(NC(=O)N(C)C)cc2)n1	Cyclin-dependent kinase 5 (Homo sapiens, UniProt Q00535)	> 30 µM (inactive)
COc1ncc(-c2ccc3nccc(-c4ccnnc4)c3c2)cc1NS(=O)(=O)c1ccc(F)cc1F	Cyclin-dependent kinase 5 (Homo sapiens, UniProt Q00535)	> 30 µM (inactive)
COc1ccc(S(=O)(=O)N(C(C)=O)c2ccccc2/C=C/c2cc[n+]([O-])cc2)cc1	Cyclin-dependent kinase 5 (Homo sapiens, UniProt Q00535)	> 30 µM (inactive)

Consider the additional compound presented here.
For the compound shown here, "CN1C/C=C/CCOc2cccc(c2)-c2ccnc(n2)Nc2cccc(c2)C1" , give the reported Kd. 0.93 µM (active)

====

Assay System: Ephrin type-A receptor 4 (Homo sapiens, UniProt P54764); note: in the data inactive means no Kd found up to 30 µM
Sequence (P54764 whole entry): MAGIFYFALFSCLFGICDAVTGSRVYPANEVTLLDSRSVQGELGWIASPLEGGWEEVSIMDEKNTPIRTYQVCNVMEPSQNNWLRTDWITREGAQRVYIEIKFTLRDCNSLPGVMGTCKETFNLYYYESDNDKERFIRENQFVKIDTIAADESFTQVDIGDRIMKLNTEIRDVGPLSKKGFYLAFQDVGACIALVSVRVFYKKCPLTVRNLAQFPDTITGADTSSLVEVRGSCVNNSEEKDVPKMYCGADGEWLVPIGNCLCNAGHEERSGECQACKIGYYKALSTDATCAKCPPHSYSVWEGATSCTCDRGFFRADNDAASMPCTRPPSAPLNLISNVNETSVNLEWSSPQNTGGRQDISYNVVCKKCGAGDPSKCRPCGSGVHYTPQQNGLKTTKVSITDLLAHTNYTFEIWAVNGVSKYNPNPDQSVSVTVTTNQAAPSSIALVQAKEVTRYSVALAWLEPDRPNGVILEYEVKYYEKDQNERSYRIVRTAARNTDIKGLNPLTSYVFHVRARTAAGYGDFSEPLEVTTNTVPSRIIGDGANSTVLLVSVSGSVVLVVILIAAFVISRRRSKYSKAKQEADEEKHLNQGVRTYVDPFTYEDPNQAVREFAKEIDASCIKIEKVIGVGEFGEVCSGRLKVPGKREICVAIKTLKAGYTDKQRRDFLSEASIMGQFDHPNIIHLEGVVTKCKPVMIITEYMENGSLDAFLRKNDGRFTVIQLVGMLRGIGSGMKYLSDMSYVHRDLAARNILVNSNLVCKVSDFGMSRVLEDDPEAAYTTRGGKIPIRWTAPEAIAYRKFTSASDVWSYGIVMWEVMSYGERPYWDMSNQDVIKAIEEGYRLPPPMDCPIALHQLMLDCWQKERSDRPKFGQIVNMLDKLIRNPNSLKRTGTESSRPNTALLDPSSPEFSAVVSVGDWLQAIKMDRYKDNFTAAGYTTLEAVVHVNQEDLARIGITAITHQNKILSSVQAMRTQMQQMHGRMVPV
Activity calls are given as the source filed them.
// allowed return values: true (1) for active, false (0) for inactive

Example entries and their recorded answers appear below.
Compound	Assigned Label
FC(F)(F)c1ccc(/C=C/c2nc(COc3ccc(CCCCn4ccnn4)cc3)co2)cc1	false (0)
CNC(=O)c1cc(Oc2ccc(NC(=O)Nc3cc(C(C)(C)C)nn3-c3ccc4ncccc4c3)c(F)c2)ccn1	false (0)
C[C@@H](N)c1ccc(C(=O)Nc2ccnc3[nH]ccc23)cc1	false (0)
Cc1cnc(NC(=O)Nc2cc(Br)c(C)cc2OC[C@@H]2CNCCO2)cn1	false (0)
O=C(Cc1ccc(-c2ccc(OCCN3CCOCC3)cc2)cn1)NCc1ccccc1	false (0)
COc1cc([C@@H]2c3cc4c(cc3[C@H](O)[C@H]3COC(=O)[C@@H]23)OCO4)cc(OC)c1OC	false (0)

Please state the recorded outcome for this compound: "Cc1nc2cc(-n3ncc(C(=O)c4cc5ccccc5[nH]4)c3N)ccc2[nH]1" false (0)

Please state the recorded outcome for this compound: "CC(C)(C)c1nc(-c2cccc(NS(=O)(=O)c3c(F)cccc3F)c2F)c(-c2ccnc(N)n2)s1" false (0)

Please state the recorded outcome for this compound: "CN1CCN(CCOc2cc(OC3CCOCC3)c3c(Nc4c(Cl)ccc5c4OCO5)ncnc3c2)CC1" true (1)

Please state the recorded outcome for this compound: C=CC(=O)Nc1cc2c(Nc3ccc(F)c(Cl)c3)ncnc2cc1C#CC(C)(C)N1CCN(C)CC1 [AV-412 FREE BASE] false (0)

Please state the recorded outcome for this compound: "C[C@H]1CNCCCN1S(=O)(=O)c1cccc2cncc(F)c12" false (0)

Please state the recorded outcome for this compound: "Cc1cc(C(=O)NOCCO)c(Nc2ccc(I)cc2F)n(C)c1=O" false (0)

Please state the recorded outcome for this compound: "CCOc1cc2ncc(C#N)c(Nc3ccc(F)c(Cl)c3)c2cc1NC(=O)/C=C/CN(C)C" false (0)

Please state the recorded outcome for this compound: "Cc1cccc(-c2nn3c(c2-c2ccnc4ccc(C(N)=O)cc24)CCC3)n1" false (0)

Please state the recorded outcome for this compound: "CN(C[C@@H]1COCCO1)S(=O)(=O)Nc1ccc2ccc3ncc(-c4cnn(C)c4)cc3c(=O)c2c1" false (0)

Please state the recorded outcome for this compound: "C[C@@H](NC(=O)c1ncnc(N)c1Cl)c1ncc(C(=O)Nc2cc(C(F)(F)F)c(Cl)cn2)s1" false (0)

Please state the recorded outcome for this compound: "Cc1csc(-c2nnc(Nc3ccc(Oc4ncccc4-c4ccnc(N)n4)cc3)c3ccccc23)c1" false (0)
